Target or system SYK (Homo sapiens, UniProt P43405); recorded quantity IC50.
Please reply with the bare figure in nM and do not write the unit itself.

Some entries whose results are on file:
C[C@]12O[C@H]([C@H](O)[C@H](O)[C@H]1O)n1c3ccccc3c3c4c(c5c6ccccc6n2c5c31)C(=O)NC4=O [formula (VII)] :: 1
C[C@]12O[C@H](C[C@H](O)[C@H]1O)n1c3ccccc3c3c4c(c5c6ccccc6n2c5c31)C(=O)NC4=O [formula (VIII)] :: 1.1

Enquiry: Given the entry C[C@]12O[C@H](C[C@@H](O)[C@H]1O)n1c3ccccc3c3c4c(c5c6ccccc6n2c5c31)C(=O)NC4=O [formula (IX)] , what IC50 was observed with SYK (Homo sapiens, UniProt P43405)?
Return: 2.3
